Property: yeast fitness; scope: individual variants
B1: tRNA (parent)
chain: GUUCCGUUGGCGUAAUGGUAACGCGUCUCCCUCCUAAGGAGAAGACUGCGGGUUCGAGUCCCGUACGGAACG

# Variants of: B1
# METHOD NOTES: yeast fitness relative to wild type (ratio to wild type); higher = fitter; tRNA-Arg(CCU), competitive growth, 37 C, YPD
This sample holds only a part of the variants without activity.
Form: value (number only, do not type unit).

Lookup: Given G12A U26A C31U G48A , respond with its yeast fitness.
Found: 0.711

Lookup: Name the recorded yeast fitness of the variant listed here: G25A U47G C49A
Found: 0.548

Lookup: Given C61G C62G , respond with its yeast fitness.
Found: 0.741

Lookup: Answer with the recorded yeast fitness for the variant listed here: U7G A37C
Found: 0.757

Lookup: State, in one line, measured yeast fitness of A20C C27U A37C A42G
Found: 0.688

Now consider the entry below.
Lookup: Assign yeast fitness to the following record: A14U G58A C61U
Found: 0.509
